- Test system: Zea mays (ZEAMX)
- ASSAY_PROTOCOL: Pre-emergence Test (glasshouse, percentage damage to the plant)
- Type: in vivo
- MEASUREMENT_SETUP: 1000 g/ha unless otherwise stated, five-point scale
METRIC: percentage damage to the plant, ZEAMX

Q. Could you share which percentage damage to the plant, ZEAMX value was measured for `CCn1c(C)c(-c2ccc(Cl)cc2Cl)c(=O)c(C(=O)O)c1-c1ccc(Cl)cc1` ?
A. 1 (1=0-20%)

Q. Next compound up: `CCn1c(C)c(-c2ccc(SC)cc2)c(=O)c(C(=O)O)c1-c1ccc(Cl)c(Cl)c1`
A. 1 (1=0-20%)

Q. Queued: `CCn1c(C)c(-c2ccccc2)c(=O)c(C(=O)O)c1-c1ccc(F)cc1F`
A. 0

Q. Also, `CCn1c(C)c(-c2cc(Cl)cc(C(F)(F)F)c2)c(=O)c(C(=O)O)c1-c1ccc(Cl)c(Cl)c1` please.
A. 1 (1=0-20%)

Q. Same read-out for CCn1c(C)c(-c2ccc(F)c(C#N)c2)c(=O)c(C(=O)O)c1-c1ccc(Cl)c(Cl)c1 [Compound 92] ?
A. 1 (1=0-20%)

Q. Follow-up entry: CCn1c(C)c(-c2ccc(F)cc2OC)c(=O)c(C(=O)OC)c1-c1ccc(Cl)c(Cl)c1 [Compound 163]
A. 1 (1=0-20%)

Q. Same question, `CCn1c(C)c(-c2cccc(OC)n2)c(=O)c(C(=O)O)c1-c1ccc(Cl)c(Cl)c1` this time
A. 2 (2=21-40%)

Q. For `CCn1c(C)c(-c2cc(F)cc(OCC(F)(F)F)c2)c(=O)c(C(=O)O)c1-c1ccc(Cl)c(Cl)c1` then?
A. 1 (1=0-20%)

---

- System: Amaranthus retoflexus (AMARE)
- ASSAY_PROTOCOL: Pre-emergence Test (glasshouse, percentage damage to the plant)
- Format: in vivo
- MEASUREMENT_SETUP: 1000 g/ha unless otherwise stated, five-point scale
For each record, write down the corresponding percentage damage to the plant, AMARE.

Q. What value of percentage damage to the plant, AMARE on Amaranthus retoflexus (AMARE) does CCn1c(C)c(-c2cccc(OC)c2F)c(=O)c(C(=O)O)c1-c1ccc(Cl)cc1 [Compound 179] have?
A. 1 (1=0-20%)

Q. Param item: CCn1c(C)c(-c2ccc(OCc3ccccc3)cc2)c(=O)c(C(=O)O)c1-c1ccc(Cl)c(Cl)c1 [Compound 34]
A. 3 (3=41-60%)

Q. # iterate: CCn1c(C)c(-c2ccccn2)c(=O)c(C(=O)O)c1-c1ccc(Cl)c(Cl)c1.Cl [Compound 28]
A. 1 (1=0-20%)

Q. Consider next the compound CCn1c(C)c(-c2ccc(Cl)c(C#N)c2)c(=O)c(C(=O)O)c1-c1ccc(Cl)cc1 [Compound 196] in the same way.
A. 1 (1=0-20%)

Q. Now this one: CCn1c(C)c(-c2ccc(F)cc2F)c(=O)c(C(=O)O)c1-c1ccc(-c2ccc(F)cc2F)c(Cl)c1 [Compound 4]
A. 1 (1=0-20%)

Q. Ok, now CCn1c(C)c(-c2ccc(C#N)c(C(F)(F)F)c2)c(=O)c(C(=O)O)c1-c1ccc(Cl)cc1 [Compound 187]
A. 1 (1=0-20%)

Q. What do you have for CCn1c(C)c(-c2ccc(Cl)cc2Cl)c(=O)c(C(=O)O)c1-c1ccc(Cl)cc1 [Compound 193] ?
A. 2 (2=21-40%)

Q. Quick one: CCn1c(C)c(-c2ccc(F)c(C#N)c2)c(=O)c(C(=O)O)c1-c1ccc(Cl)c(Cl)c1 [Compound 92]
A. 1 (1=0-20%)

Q. Please do the same for CCn1c(C)c(-c2csc(Cl)c2)c(=O)c(C(=O)O)c1-c1ccc(Cl)c(Cl)c1 [Compound 37] as well.
A. 1 (1=0-20%)
